test system: LY18 (OCI-LY18) GCB DLBCL cell line; assay: MTT assay (cellular metabolic activity), 72 h; type: cell-based; conditions: Homo sapiens, OCI-Ly18, 72 h
measure-name: IC50 (nM)

> print(dat)
                                  structure                         study.system  measure.name  value.units  reported.measurement
1  CCS(=O)(=O)N1CCN(c2ccc(Nc3ncc(C(N)=O)c(NC4CC4)n3)cc2)CC1  LY18 (OCI-LY18) GCB DLBCL cell line          IC50           nM                   160

====

test system: LY8 (OCI-LY8) GCB DLBCL cell line; assay: MTT assay (cellular metabolic activity), 72 h; format: cell-based; details: OCI-Ly8, 72 h
measure-name: IC50 (µM)

> print(dat)
                                   compound  measure.name  reported.measurement
1  CCS(=O)(=O)N1CCN(c2ccc(Nc3ncc(C(N)=O)c(NC4CC4)n3)cc2)CC1 [cerdulatinib]          IC50                  0.05

====

tested on: SUDHL2 ABC DLBCL cell line; assay: MTT assay (cellular metabolic activity), 72 h; type: cell-based; settings: Homo sapiens, SU-DHL-2; SUDHL2, 72 h
pIC50: −log10 of the molar value.
measure-name: pIC50

> print(dat)
                                  structure  measure.name  reported.measurement
1  CCS(=O)(=O)N1CCN(c2ccc(Nc3ncc(C(N)=O)c(NC4CC4)n3)cc2)CC1         pIC50                  6.01
